Values from PubChem BioAssay (NCI)

# key: entry, value: TGI
test system: UACC-62 melanoma; assay: NCI tumour cell line growth inhibition, 48 h
observed property: TGI

compound | observed property | value observed
c1ccc2c(c1)nnn2CNc1ccc(N2CCCCC2)cc1 | TGI | > 100 µM
Cc1cc(N(CCC#N)S(=O)(=O)c2ccccc2)ccc1C=Nc1cccc(C(=O)O)c1 | TGI | > 100 µM
O=C1NC(=O)C(C(=O)C(=O)Nc2cc(Cl)ccc2Cl)C(=O)N1 | TGI | > 100 µM
c1ccc(-c2cnc(SC(c3ccccc3)c3ccccc3)[nH]2)cc1 | TGI | 42.1 µM
OCC1NC(COC2OC(CO)C(O)C(O)C2O)C(O)C(O)C1O (stereo unspecified) | TGI | > 100 µM
COC(=O)c1cc(-c2ccc3ccccc3c2)[nH]c(=O)c1C#N | TGI | > 100 µM
COc1cc(/C=C/C(=O)c2cccc3ccccc23)cc(OC)c1OC | TGI | 21.3 µM
Cc1ccccc1/C=C/c1csnn1 | TGI | > 100 µM
O=C([CH-]C(=O)c1ccccc1)c1ccccc1.[C-]#[O+].[C-]#[O+].[Ir] | TGI | > 100 µM
CN1CCN(CCCOc2cccc3nc(Nc4cc(Cl)cc(Cl)c4)ccc23)CC1 | TGI | 3.68 µM
C[C@@H]1CC[C@H]2[C@@H](C)C(O)O[C@@H]3O[C@]4(C)CC[C@@H]1[C@]32OO4 (stereo partly specified) | TGI | > 76.9 µM

###

tested on: MOLT-4 leukemia; assay: NCI tumour cell line growth inhibition, 48 h; in the data active = GI50 below about 0.43 µM; inactive = the rest
Outcome codes: yes for active, no for inactive

compound | qualitative label
NC(N)=NN=c1c(=O)c2ccccc2c1=O | no
Cc1nc2ccccn2c1NC(=O)NN1C(=O)CSC1c1ccc(Cl)cc1 (stereo not given) | no
COc1ccc(C(=O)/C=C/c2sc(Cl)nc2Cl)cc1 | yes
O=c1cc(-c2ccc(Cl)cc2)[nH]c2ccccc12 | no
Oc1ccc(NC(=S)Nc2ccccc2)cc1 | no
CCOC(=O)/C(=C/CC/C(C)=C/CC/C(C)=C/CCc1ccoc1)CC(=O)N1CCCCC1 | no
COc1cccc(/C=N/[N-]C(=O)c2ccncc2)c1[O-].[Mn+2].[OH3+] | no
Cc1cccc2c(C3=C(c4cn(C)c5ccccc45)C(=O)NC3=O)cn(C)c12 | no
Cc1nnc(C[C@@H]2C=C(c3ccc(Cl)cc3)c3ccccc3-n3c(C)nnc32)o1 | no
Nc1nc(=O)n(C2CC(O)C(CO)O2)cc1F (stereo not given) | yes
COc1ccccc1-n1cnc(N)c1C(=O)c1cc(OC)c(OC)c(OC)c1 | no
C1=N[C@]23C(=N[C@H](N=C2NCc2ccco2)[C@]24N=CNC2=N[C@H]3N=C4NCc2ccco2)N1 | no
CC[C@@]1(O)C(=O)OCc2c1cc1n(c2=O)Cc2cc3cc(Cl)ccc3nc2-1 | yes
CC(=O)N[C@H](C)[C@@H](O)[C@@H](C)[C@@H]1OC(=O)/C=C/C=C(C)\C=C\[C@]2(C)C[C@@H](NS(C)(=O)=O)C=C[C@@H]2/C=C(C)/C=C/[C@H]1C | no
O=C(COc1ccc(/C=C2\Oc3ccc4ccccc4c3C2=O)cc1)c1ccc([N+](=O)[O-])cc1 | no

###

test system: A498 renal; experiment: NCI tumour cell line growth inhibition, 48 h
# key: entry, value: TGI

compound | TGI
c1ccc(-c2cnc(SC(c3ccccc3)c3ccccc3)[nH]2)cc1 | > 100 µM
CCOC(=O)Oc1cc2ccsc2c2c1c1ccccc1n2C(=O)OCC | 32.6 µM
COc1ccc(/C=C2/N=C(N/N=C\C(O)C(O)C(O)CO)NC2=O)cc1 (centres undefined) | > 100 µM
CC/C=C\C[C@H]1C/C=C2/C(=O)C=C[C@H]2C/C=C\CCCC(=O)O1 | 14.4 µM
Cc1cc(F)c(C(=O)Nc2cccc(-c3nncn3C(C)C)n2)cc1-n1cnc(C2CC2)c1 | 62.6 µM
CC(=O)OC1C[C@H]2C(OC(=O)c3ccccc3)C3C4(OC(C)=O)COC4C[C@H](OC(C)=O)[C@@]3(C)C(OC(C)=O)[C@H](OC(C)=O)C(=C1C)C2(C)C (some centres undefined) | > 100 µM
CC(=O)OCCOCn1c2ccccc2c2c3c(c4c5ccccc5n(COCCOC(C)=O)c4c21)C(=O)N(Cc1ccccc1)C3=O | > 100 µM
Cc1nnc(C[C@@H]2C=C(c3ccc(Cl)cc3)c3ccccc3-n3c(C)nnc32)o1 | 12.7 µM
O=CC(OC(=O)c1ccccc1)C(OC(=O)c1ccccc1)C(COC(c1ccccc1)(c1ccccc1)c1ccccc1)OC(=O)c1ccccc1 (centres undefined) | 29.7 µM
O=C1NC(=O)C(C(=O)C(=O)Nc2cc(Cl)ccc2Cl)C(=O)N1 | > 100 µM
C[C@@H]1C[C@H]2OC(=O)[C@@]3(C)CCC[C@@](C)([C@@H]23)[C@@]1(O)CCc1ccoc1 | > 100 µM
C=C1C(=O)OC2C1CCC(=C)C1CC(O)C(=C)C12 (centres undefined) | 38 µM
CN1C(=O)c2ccccc2C(O)(c2ccccc2)C1(O)c1ccccc1 (centres undefined) | > 100 µM
CCCCCCCCSC(=O)NCCCC | > 100 µM
COC(=O)C1OC(O[C@H]2CC[C@]3(C)[C@H]4CC=C5[C@@H]6CC(C)(C)CC[C@]6(C(=O)OC)CC[C@@]5(C)[C@]4(C)CC[C@H]3C2(C)C)C(O)C(O)C1O (some centres undefined) | 34.3 µM
C#CCN(N=O)C(=O)NC(CCCCNC(=O)OCc1ccccc1)C(=O)OCc1ccccc1 (centres undefined) | > 100 µM
CC1CC(=O)Nc2ccc(Cl)cc2N1C(=O)CN1CCC(CCCCN(C)C)CC1 (centres undefined) | > 100 µM
Cc1ccc(C2(O)c3ccccc3C(=O)N(C)C2(O)c2ccc(C)cc2)cc1 (centres undefined) | > 100 µM
COc1cc(/C=C/C(=O)c2cccc3ccccc23)cc(OC)c1OC | 10.6 µM
CCCNC1=C2C[C@@H](C)C[C@@H](OC)[C@@H](OC(=O)CCCN)[C@H](C)/C=C(\C)[C@@H](OC(N)=O)[C@H](OC)/C=C\C=C(/C)C(=O)NC(=CC1=O)C2=O | 37.1 µM
COc1ccc2[nH]c3cc4c(=O)c5cc(OC)ccc5[nH]c4cc3c(=O)c2c1 | > 100 µM
C/C(=N\Nc1ccccc1)c1sc(-c2nc(C)c(/C(C)=N/Nc3ccccc3)s2)nc1C | > 100 µM
C/C(=C1/N=C(c2cc([N+](=O)[O-])ccc2Cl)N(c2ccc(Br)cc2)C1=O)c1ccc(N(CCC#N)CCC#N)cc1C | 96.4 µM
O=C1CC(c2ccc(Cl)cc2)C2(C(=O)NC(=S)NC2=O)C(c2ccc(Cl)cc2)C1 (centres undefined) | 31.4 µM
O=C(NCCCCCCCCCCCCNC(=O)c1cnc2ccccc2n1)c1cnc2ccccc2n1 | > 100 µM
Cc1ccc2nc(N)[nH]c(=O)c2c1Sc1ccncc1 | > 100 µM
O=[N+]([O-])c1cc(Br)cc2cc(Cl)cnc12 | > 100 µM
COc1ccccc1N1CCN(CCCCNC(=O)c2ccc([N+](=O)[O-])o2)CC1 | 22.8 µM
CCOC(=O)C1(CC(=O)O)CCCC1=O (centres undefined) | > 100 µM
COc1cccc(N/C(C)=C2/CCOC2=O)c1 | > 10 µM
CCCC(=O)OCC1OC2OC(C)(C)OC2C2OC(C)(C)OC12 (centres undefined) | > 100 µM
CCCCn1c(-c2ccccc2)cs/c1=N\N=C1C=C(C(C)(C)C)C(=O)C(C(C)(C)C)=C1 | > 100 µM
COc1ccc(C(c2ccccc2C(=O)O)c2ccc(OC)c3ccccc23)c2ccccc12 | 39 µM
Cc1noc2cccc(O)c12 | > 100 µM
CC1=C(C(=O)NNC(=O)Cc2ccccc2)CC(C(=O)NNC(=O)Cc2ccccc2)=C(C)N1 | > 100 µM
CC(=O)Nc1ccccc1-c1nc2ccccc2nc1-c1ccccc1 | > 100 µM
CN(C(=O)[C@H](NC(=O)OCc1ccccc1)c1ccccc1)C1CCCCC1N1CCCC1 (some centres undefined) | > 100 µM
O=C(N/N=C(/COc1ccccc1)N=Cc1ccncc1)c1ccncc1 | > 100 µM
C/C(NNC(=O)c1ccccc1O)=C1\C=Nc2ccccc2S1 | > 100 µM

###

# key: entry, value: TGI
test system: SR leukemia; test: NCI tumour cell line growth inhibition, 48 h
observed property: TGI

compound | observed property | value observed
C/C(=N\Nc1ccccc1)c1sc(-c2nc(C)c(/C(C)=N/Nc3ccccc3)s2)nc1C | TGI | > 100 µM
CC(=O)NNc1nc(C)c(C(=O)NNC(=O)C(=O)Nc2ccc(Cl)c([N+](=O)[O-])c2)s1 | TGI | > 100 µM
O=C(O)C1C2C=CC(O2)C1C(=O)NCc1cccnc1 (configuration not stated) | TGI | > 100 µM
COc1ccc(/C=C2/N=C(N/N=C\C(O)C(O)C(O)CO)NC2=O)cc1 (configuration not stated) | TGI | > 100 µM
c1ccc(-c2cnc(SC(c3ccccc3)c3ccccc3)[nH]2)cc1 | TGI | 64.3 µM
O=c1oc2ccc([N+](=O)[O-])cc2nc1/C=C(\O)c1ccccc1 | TGI | > 100 µM
CN(C)c1ccc(/C=C/C(=O)c2ccc(Nc3nc(Nc4ccc(F)cc4)nc(Nc4ccc(F)cc4)n3)cc2)cc1 | TGI | > 100 µM
COC(=O)C(=O)C(CC(=O)Nc1cc(Cl)ccc1Cl)C(=O)OC (configuration not stated) | TGI | > 100 µM
Cc1nc2cn3c(c2c(=O)[nH]1)CCCCC3 | TGI | > 100 µM
COc1ccccc1-n1cnc2c1NC(C)(C)N=C2C(N)=O | TGI | > 100 µM
CCOC(=O)/C(Br)=C1\OC(=O)c2ccccc2-c2ccccc21 | TGI | 56.7 µM
Nc1nc(=O)n(C2CC(O)C(CO)O2)cc1F (configuration not stated) | TGI | > 100 µM
CC(C)C[S+]1C2=C([O-])CC(C)(C)CC2=Nc2ccccc21 (configuration not stated) | TGI | 75.8 µM
Cc1ccc2c(c1)[n+](=O)c(C(=O)c1cccs1)c(C(F)(F)F)n2[O-] | TGI | 50 µM
O=S(=O)(C1=CC(S(=O)(=O)c2ccccc2)COC1)c1ccccc1 (configuration not stated) | TGI | > 100 µM
O=C(NC1CCN(Cc2ccccc2)CC1)c1cc(-c2cccnc2)nc2ccc(Cl)cc12 | TGI | 12.9 µM
O=c1cc(-c2ccc(Cl)cc2)[nH]c2ccccc12 | TGI | > 100 µM
CCOC(=O)/C=C/n1c2ccccc2c(=O)c2cc(OC)ccc21 | TGI | > 100 µM
CC(=O)Nc1ccccc1-c1nc2ccccc2nc1-c1ccccc1 | TGI | > 100 µM
CCCCCCCCCCC(=O)CCCCCCC(=O)O | TGI | 44.2 µM
NC(N)=NN=c1c(=O)c2ccccc2c1=O | TGI | 5.92 µM
CC(=O)Nc1ccc(NC(=O)CC(=O)Nc2ccc(NC(C)=O)cc2)cc1 | TGI | > 100 µM
